B1: TPR t1 (parent)
chain: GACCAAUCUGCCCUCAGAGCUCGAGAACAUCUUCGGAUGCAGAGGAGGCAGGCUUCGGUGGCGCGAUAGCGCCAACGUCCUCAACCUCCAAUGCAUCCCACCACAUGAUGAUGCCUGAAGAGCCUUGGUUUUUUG

# Variants of: B1
# Assay Notes: polymerase ribozyme fitness, log enrichment relative to wild type (log ratio); higher = more active; in vitro selection for triplet polymerase activity
Please use the following polymerase ribozyme fitness (log ratio) ranges when assigning a class: small value (below -3), mid value (-3 to below -2), large value (-2 or more)

Solved cases below.
{"columns": ["Variant String", "Class Name"],
 "data": [
  ["C8A C13G U14G G48A G77A G128C", "small value"],
  ["C40U A43U G69U", "large value"],
  ["C15U C72G", "large value"],
  ["U7G U9A G10C A18G A29C", "small value"],
  ["C12A C20U G47U", "small value"]
]}

In: Dear colleague, I would appreciate it if you could identify the bin for C11G C53U G61A G107A and reply at your convenience.
Out: small value

In: Band for C8G U59G C82U C85A U126C ?
Out: large value

In: Exercise: read the entry `G122C` and state which class it falls under.
Out: mid value
